Data provenance: PubChem BioAssay

- Test system: Plasmodium falciparum Sir2 (PF13_0152, Sir2A)
- Procedure details: pfSir2 binders on small-molecule microarrays, primary screen, biochemical, small-molecule microarray, 635 nm fluorescence (AID 1098);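 note: score merges spot fluorescence intensity with its signal-to-noise ratio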
- Condition parameters: small-molecule microarray binding, fluorescence 635 nm; higher = more signal
Would you please tag the item YES when its composite z-score is -0.1 or above, and NO when it is below?

A selection of reference data follows.
INSERT INTO assay_data (molecule, cat) VALUES
  ('CCOC(=O)[C@H](Cc1ccccc1)NC(=O)CCC1CC(OC(=O)NCCc2ccc(F)cc2)CC2(CCCC(COC(=O)NCCc3ccccc3OC)O2)O1 (stereo partly drawn)', 'YES'),
  ('CC(C)=NO[C@H](C)c1cn([C@H](CO)Cc2ccccc2)nn1', 'YES'),
  ('COC(=O)[C@H](C)NC(=O)CCC1CC(OC(=O)NCc2ccc3c(c2)OCO3)CC2(CCCC(COC(=O)NCC(c3ccccc3)c3ccccc3)O2)O1 (stereo partly drawn)', 'YES'),
  ('COC(=O)[C@H]1[C@@H](O)[C@@]2(O)c3ccccc3O[C@@]2(c2ccccc2)[C@@H]1c1ccccc1', 'NO');

Exam item: Check if composite z-score >= -0.1 (inclusive). Item: COc1cccc([C@@H]2Oc3ccc(OC)cc3C(=O)[C@H]2O)c1
Marked response: NO

---

- Measured on: Epidermal growth factor receptor (Homo sapiens) (UniProt P00533)
- Sequence (P00533 whole entry, looked up): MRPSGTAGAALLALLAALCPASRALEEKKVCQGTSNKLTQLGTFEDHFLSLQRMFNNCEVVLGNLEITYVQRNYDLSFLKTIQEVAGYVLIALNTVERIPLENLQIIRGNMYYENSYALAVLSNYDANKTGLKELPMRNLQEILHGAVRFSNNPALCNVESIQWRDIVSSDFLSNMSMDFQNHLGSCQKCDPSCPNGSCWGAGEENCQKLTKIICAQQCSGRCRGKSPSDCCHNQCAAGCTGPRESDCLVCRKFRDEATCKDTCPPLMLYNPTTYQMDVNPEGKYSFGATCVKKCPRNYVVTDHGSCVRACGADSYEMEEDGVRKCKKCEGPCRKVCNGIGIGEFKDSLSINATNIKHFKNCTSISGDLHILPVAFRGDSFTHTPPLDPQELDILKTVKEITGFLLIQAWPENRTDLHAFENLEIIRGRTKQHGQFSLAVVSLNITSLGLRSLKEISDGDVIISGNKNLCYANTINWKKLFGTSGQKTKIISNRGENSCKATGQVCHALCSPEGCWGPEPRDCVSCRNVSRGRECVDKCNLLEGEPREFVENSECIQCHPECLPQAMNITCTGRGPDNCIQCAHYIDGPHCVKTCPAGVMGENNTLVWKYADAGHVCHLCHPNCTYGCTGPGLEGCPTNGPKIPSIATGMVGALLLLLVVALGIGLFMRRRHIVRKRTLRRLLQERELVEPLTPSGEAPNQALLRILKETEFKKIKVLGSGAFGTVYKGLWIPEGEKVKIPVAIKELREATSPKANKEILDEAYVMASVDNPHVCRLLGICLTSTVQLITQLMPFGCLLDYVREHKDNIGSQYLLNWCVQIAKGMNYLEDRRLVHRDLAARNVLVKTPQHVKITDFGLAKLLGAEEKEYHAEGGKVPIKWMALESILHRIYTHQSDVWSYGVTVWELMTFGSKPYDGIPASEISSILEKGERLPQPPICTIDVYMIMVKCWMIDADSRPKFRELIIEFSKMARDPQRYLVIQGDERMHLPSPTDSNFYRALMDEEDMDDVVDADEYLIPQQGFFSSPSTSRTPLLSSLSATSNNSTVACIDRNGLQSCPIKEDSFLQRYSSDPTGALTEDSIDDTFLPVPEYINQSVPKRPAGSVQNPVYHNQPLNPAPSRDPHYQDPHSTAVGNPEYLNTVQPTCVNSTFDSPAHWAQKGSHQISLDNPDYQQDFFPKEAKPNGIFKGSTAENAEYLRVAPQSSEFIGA
- Procedure details: EGFR binders on small-molecule microarrays, primary screen, biochemical, small-molecule microarray, 635 nm fluorescence (AID 1104);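 note: score merges 667 nm emission intensity with spot signal to noise over triplicate slides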
- Condition parameters: EGFR binding, higher = more signal
Measurement label: composite z-score

Exam item: Which measured composite z-score value corresponds to CC(C)=CCCC(C)=CCON=C1C[C@@H](O)[C@@H](O)[C@@H]2[C@@H]3C(=O)N(C(C)(C)C)C(=O)[C@@H]3CC[C@@H]12 ?
Marked response: 0.619

Exam item: So what's the measured composite z-score for this one? CCOC(=O)[C@H](Cc1ccccc1)NC(=O)CCC1CC(OC(=O)NCc2ccc3c(c2)OCO3)CC2(CCCC(COC(=O)NCCC(C)C)O2)O1 (some centres undefined)
Marked response: -0.0617

Exam item: Please report the recorded composite z-score for CCOC(=O)NN=C1C[C@@H](O)[C@@H](O)[C@@H]2[C@@H]3C(=O)N(Cc4ccc5c(c4)OCO5)C(=O)[C@@H]3CC[C@H]12 .
Marked response: -0.0894

Exam item: Returns the measured composite z-score for the input compound. Input: Cc1cc2c(c(=O)o1)[C@@H](O)[C@H]1O[C@H]1C2=O
Marked response: 0.287

Exam item: What does the record list as composite z-score for CCOC(=O)[C@H](CC(C)C)NC(=O)CCC1CC(OC(=O)NCc2cccc3ccccc23)CC2(CCCC(COC(=O)NCCc3ccc(Cl)cc3)O2)O1 (some centres undefined) ?
Marked response: 0.681

Exam item: Dear colleague, I am looking for the recorded composite z-score of the following compound: COC(=O)CC=C[C@@H](C)[C@@H](C=NO[C@@H]1O[C@H](COC(C)=O)[C@@H](OC(C)=O)[C@H](OC(C)=O)[C@H]1OC(C)=O)OC
Marked response: 0.383

Exam item: Look at this compound and give its reported composite z-score. CCOC(=O)[C@H](Cc1ccccc1)NC(=O)CCC1CC(OC(=O)NCc2cccc3ccccc23)CC2(CCCC(COC(=O)NCC(c3ccccc3)c3ccccc3)O2)O1 (some centres undefined)
Marked response: 0.356

Exam item: Give the measured composite z-score of CO[C@H]1COC(=O)CC=C[C@@H](C)[C@H](OC)COC(=O)[C@@H]2CCCN2C(=O)CC=C[C@@H]1C .
Marked response: 1.13

Exam item: For the compound shown here, COC(=O)NCC=Cc1nc(CCCO)co1 , give the reported composite z-score.
Marked response: 0.581

Exam item: Entry under review: CO[C@@H]1COC(=O)[C@H](CCSC)NC(=O)CC=C[C@@H](C)COC(=O)[C@H](C)NC(=O)CC=C[C@H]1C . Reported composite z-score?
Marked response: 0.953

Exam item: # input compound: COc1cccc([C@@H]2Oc3ccc(OC)cc3C(=O)[C@H]2O)c1 ; wanted: its composite z-score
Marked response: 0.469

Exam item: Consider the compound CCOC(=O)NN=C1C[C@@H](O)[C@@H](O)[C@@H]2[C@@H]3C(=O)N([C@@H](C)c4ccccc4)C(=O)[C@@H]3CC[C@@H]12 and give its measured composite z-score.
Marked response: 1.09

Exam item: So what's the measured composite z-score for this one? CCOC(=O)[C@H](CC(C)C)NC(=O)CCC1CC(OC(=O)NCc2ccc3c(c2)OCO3)CC2(CCCC(COC(=O)NCC(c3ccccc3)c3ccccc3)O2)O1 (some centres undefined)
Marked response: -0.519

Exam item: Entry C=COC[C@@H]1CN2[C@@H](CC[C@@H](C)[C@@H]2c2ccc(Br)cc2)C(=O)O1 has what composite z-score?
Marked response: -0.46

Exam item: Reported composite z-score, compound COc1ccc(O[C@H]2C=C[C@@H](c3ccccc3)O[C@@H]2CON=C(C)CCC(=O)OC[C@H]2O[C@H](c3ccccc3)C=C[C@@H]2Oc2ccc(OC)cc2)cc1 : ____
Marked response: -1.63

Exam item: Data request, read-out composite z-score, for C[C@@H](c1ccccc1)N1C(=O)[C@H]2[C@H]3[C@H](O)[C@H](O)CC(=NO[C@@H]4O[C@H](CO)[C@@H](O)[C@H](O)[C@H]4O)[C@@H]3CC[C@H]2C1=O
Marked response: 0.586

Exam item: What does the record list as composite z-score for CCOC(=O)[C@H](Cc1ccccc1)NC(=O)CCC1CC(OC(=O)NCCc2ccc(F)cc2)CC2(CCCC(COC(=O)NCC3CCCCC3)O2)O1 (some centres undefined) ?
Marked response: 0.53

Exam item: Can you share its composite z-score? I mean this compound: COC(=O)[C@H](C)NC(=O)CCC1CC(OC(=O)NCc2cccc3ccccc23)CC2(CCCC(COC(=O)NCC(c3ccccc3)c3ccccc3)O2)O1 (some centres undefined)
Marked response: 0.702

Exam item: Please report the recorded composite z-score for COC(=O)[C@@H]1CC[C@@H](C)[C@H](c2ccc(Br)cc2)N1 .
Marked response: 0.185

Exam item: Item O=C1C2=CC[C@H]3C(=O)N(c4cccc(Oc5ccccc5)c4)C(=O)[C@H]3[C@H]2[C@H](O)[C@@H]2O[C@H]12 has what recorded composite z-score?
Marked response: 0.299

Exam item: Look at this compound and give its reported composite z-score. C[C@@H](c1ccccc1)N1C(=O)[C@H]2[C@H]3[C@H](O)[C@H](O)CC(=NOCc4ccccc4)[C@H]3CC[C@H]2C1=O
Marked response: 0.45

Exam item: // query composite z-score value for entry Cc1ccc(S(=O)(=O)N[C@H]2COC(=O)CC=C[C@@H](C)COC(=O)CC=C[C@@H]2C)cc1
Marked response: 0.823

---

- Measured on: Dihydroorotate dehydrogenase (quinone), mitochondrial (Plasmodium falciparum (isolate 3D7))
- Procedure details: PfDHODH enzyme inhibitors, primary screen, biochemical, C-terminal His tag, absorbance 600 nm (AID 1175);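 note: recombinant parasite enzyme with a five histidine tag at its C terminus; test concentration not given here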
- Condition parameters: DCIP absorbance 600 nm, higher = more signal, called active from +8 up or from −8 down
Measurement label: composite z-score
Give a plain numeric answer without units written out.

INSERT INTO results (molecule, measured) VALUES
  ('C=CC[C@@H]1C=C[C@H](ON=C(C)CCN2CCc3nc(-c4ccccc4)c(-c4ccccc4)cc3C2)[C@@H](CO)O1', -0.126),
  ('CCCNC(=O)OC[C@H]1O[C@H](CCON=C(C)CCC(=O)OC[C@H]2O[C@H](c3ccccc3)C=C[C@@H]2Oc2ccc(OC)cc2)C=C[C@@H]1Oc1ccc(OC)cc1', -1.13),
  ('C[C@H]1CC[C@H]2C(=O)OC(CO)CN2[C@@H]1c1ccc(Br)cc1 (stereo not given in full)', -0.0747),
  ('CON=C[C@@H](C)[C@H](OCc1ccccc1)C(C)C', -2.72),
  ('C#CCCCON=C1C[C@@H](O)[C@@H](O)[C@@H]2[C@@H]3C(=O)N(c4ccc(F)cc4F)C(=O)[C@@H]3CC[C@@H]12', -0.278),
  ('CCOC(=O)C1=NO[C@]2(C=C(Br)C3(OCCCO3)[C@H]3O[C@H]32)C1', -0.671);

Exam item: Fill in the blank: the reported composite z-score of COC(=O)CC=C[C@@H](C)[C@@H](C=NO[C@@H](C)c1cn([C@H](CO)Cc2ccccc2)nn1)OC is ____.
Marked response: -0.842

Exam item: Recorded composite z-score for COc1ccc(C#C[C@@H]2C=C[C@H](OC(C)=O)[C@@H](COC(C)=O)O2)cc1 , please?
Marked response: -0.531

Exam item: Requested read-out: composite z-score. Entry: Cc1cc2c(c(=O)o1)[C@@H](O)[C@H]1O[C@H]1C2=O
Marked response: 0.664

Exam item: Given the entry CC(C)(C)N1C(=O)[C@H]2[C@H]3[C@H](O)[C@H](O)CC(=O)[C@@H]3CC[C@H]2C1=O , report its measured composite z-score.
Marked response: -0.251

Exam item: Could you tell me which composite z-score is on file for C#CCCCON=C1C[C@@H](O)[C@@H](O)[C@@H]2[C@@H]3C(=O)N(Cc4ccccc4)C(=O)[C@@H]3CC[C@@H]12 ?
Marked response: -1.23

Exam item: # composite z-score lookup, item CO[C@H]1COC(=O)[C@@H](C)COC(=O)[C@H](C)NC(=O)CC=C[C@H]1C
Marked response: 0.289
